# TEST DESCRIPTION: soluble on expression in E. coli; label from the status in PepcDB or PDB records

[
  {
    "BIOSEQUENCE": "MILCSEKEKCEGIKNSKDEGIIPRVLILSTLQGEPSREKAKIGIFGINPGPHLPFERLYYTDILKKHGLFTSEYSKSNAIKAFKEIHDTWVSEFIKNYRNYPFHYKYFANTLEFLKKAKTVLIYRRKYNSVWRISILLEHHHHHH",
    "soluble on expression in E. coli": "not soluble"
  },
  {
    "BIOSEQUENCE": "MGSDKIHHHHHHMGAGELLQDWRVHALRIEDEVSRVVIGQPQTIRLITVALFARGHVLLEGGVGVGKTTVLRAFARVVGGEFERVEGTIDLMPGDLVYHTYVDAEGRPRIDPGPLLRHGERLTTFFFNEINRARPQVQSLLLRAMAERSVWAFDREYRFPHMTVFADRNKVEKEETFELASAARDRFLFELGMPTPTEPDVRRSLVFDAAFHDVDSLLARLPPAIVQWEQLNQVGAAIQESVQSSETIERYVLDIWQATETPQRFGIALDGVDMDRLILAGASPRGMSALLRAARVVAWLAGRSHLVPEDIHAVLMPALGHRVFFTPIYELRRQELAEALMTQIMNRLAVP",
    "soluble on expression in E. coli": "not soluble"
  }
]
